So I've got a bunch of molecules here, and I need their TGI values.
System: M14 melanoma
test.name: NCI tumour cell line growth inhibition, 48 h

Incoming: Indicate the recorded TGI value for this molecule: `NS(=O)(=O)c1nnc(NC(=O)Nc2ccc(Cl)c(Cl)c2)s1`
Outgoing: 32.3 µM

Incoming: Specify measured TGI for `CC(=O)Oc1cccc2c1C(=O)CCCC2` .
Outgoing: > 100 µM

Incoming: Using the record for `O=C(c1ccccn1)C1(N2CCCCC2)CCCCC1` , state its measured TGI.
Outgoing: > 100 µM

Incoming: Give the measured TGI for `CC1=Nc2ccccc2OC(C)=C1N=Nc1ccc2nc(C)[nH]c2c1`
Outgoing: > 100 µM

Incoming: Supply TGI value. Item: S=c1sc2c(n1-c1ccccc1)NC=NC2S (stereo not given)
Outgoing: > 100 µM

Incoming: State, in one line, measured TGI of `CN(C)CCn1c2c3ccccc3ccc2c2oc(=O)c3ccccc3c21`
Outgoing: 19.1 µM

Incoming: Supply measured TGI of `COc1ncc(/C=C2\OC(=O)c3ccccc32)c(OC)n1` in your reply.
Outgoing: > 100 µM

Incoming: Give the value of TGI reported for the following: `Nc1n[nH]c2cccc(C#Cc3cccc(C(=O)Nc4ccc(CN5CCOCC5)c(C(F)(F)F)c4)c3)c12`
Outgoing: 3.59 µM

Incoming: Provide only the value of recorded TGI for O=C1NC(=NC(CO)Cc2ccccc2)S/C1=C\c1ccc2ncccc2c1 (stereo not given)
Outgoing: > 25 µM

Incoming: Note down TGI recorded for COc1cc(C2CC(C)(O)Oc3cc4c(cc32)OCO4)cc(OC)c1OC (stereo not given)
Outgoing: > 100 µM

Incoming: Return TGI for the following molecule: `CC(=O)O/N=C(/C)c1ccccc1O`
Outgoing: > 100 µM

Incoming: Retrieve TGI measured for `O=C1CCCCN1c1ccccc1C#C/C=C\C#Cc1ccccc1C(F)(F)F` and print it.
Outgoing: 2.29 µM

Incoming: Specify reported TGI for the molecule shown: `Nc1ncnc2c1[nH]c(=O)n2-c1ccccc1`
Outgoing: > 100 µM

Incoming: Identify TGI associated with the molecule `CC(C)=CCC[C@@H](C)c1c(O)c(O)c(C)c2nccnc12`
Outgoing: > 100 µM

Incoming: Give TGI for the following molecule: CC(=O)CC(OC(C)=O)C1=CCC2C(CC1C)OC(=O)C2C (stereo not given)
Outgoing: > 100 µM

Incoming: Please look at this molecule and report its TGI: `CCCCCCCCCCn1cc[n+](C)c1`
Outgoing: 13.5 µM

Incoming: Provide only the value of recorded TGI for `N#Cc1c[nH]n2c(N=Nc3ccc(Cl)cc3)c(O)nc12`
Outgoing: > 100 µM

Incoming: Given `O=[N+]([O-])c1ccc(Cl)cc1N/N=C/c1ccnc2ccccc12` , respond with its TGI.
Outgoing: > 100 µM

Incoming: State its TGI for this molecule: `CN1CC[C@@H](NC(=O)Nc2ccc(C#N)cc2)C[C@@H]1c1nc2ccccc2[nH]1`
Outgoing: > 100 µM

Incoming: Provide measured TGI value, entry: `C=CC1(CC/C(=C\[N+](=O)[O-])c2ccc(OC)c(OC)c2)OCC(C)(C)CO1`
Outgoing: 39.6 µM

###

System: NCI-H460 lung
test.name: NCI tumour cell line growth inhibition, 48 h
Answer each item with its documented TGI.

Incoming: Please report the measured TGI for `C=CC1(CC/C(=C\[N+](=O)[O-])c2ccc(OC)c(OC)c2)OCC(C)(C)CO1`
Outgoing: 55 µM

Incoming: Determine its reported TGI: `COc1ccc(C)cc1-c1cc(Sc2ccccc2)c(-c2cc(C)ccc2OC)o1`
Outgoing: > 31.6 µM

Incoming: Report TGI, nothing else, for this compound: C/C(=C\CBr)CCC(Br)C(C)(C)Br (stereo unspecified)
Outgoing: > 100 µM

Incoming: For the compound `Nc1c(-c2ccc(Cl)c(Cl)c2)c2ccc([N+](=O)[O-])cc2c(=O)n1-c1nc2ccccc2s1` , give its reported TGI.
Outgoing: > 100 µM

Incoming: Respond only with TGI recorded for `COc1ccc2cc1Oc1ccc(cc1)C[C@H]1c3cc(c(OC)cc3CCN1C)Oc1c(O)c(OC)cc3c1[C@H](C2)N(C)CC3`
Outgoing: 45.2 µM

Incoming: Hello, please tell me recorded TGI for this one: COc1cc(S(=O)(=O)Nc2nc(-c3ccc(N4C(=O)C(CC(=O)O)SC4c4cccs4)cc3)cs2)ccc1Cl (stereo unspecified)
Outgoing: > 100 µM

Incoming: Give the value of TGI reported for the following: Nc1ccccc1SC(CC(=O)c1ccccc1)c1cccc([N+](=O)[O-])c1 (stereo unspecified)
Outgoing: 38.8 µM

Incoming: State, in one line, measured TGI of `COc1ccc(CN2C(=O)/C(=C\c3cc(OC)c(OC)c(OC)c3)c3ccccc32)cc1`
Outgoing: 4.09 µM

Incoming: Write down TGI measured for item O=C1NC(=NC(CO)Cc2ccccc2)S/C1=C\c1ccc2ncccc2c1 (stereo unspecified)
Outgoing: > 25 µM

Incoming: Read off the recorded TGI for O=C1CCCCC1CN1CCCCC1 (stereo unspecified)
Outgoing: > 100 µM

Incoming: Note down TGI recorded for `Cn1ccc2c3c(Oc4ccc(NC(N)=O)cc4)ccnc3ccc21`
Outgoing: > 100 µM

###

Test system: MALME-3M melanoma
test.name: NCI tumour cell line growth inhibition, 48 h
For each of the compounds below, state its TGI.

Incoming: Supply measured TGI of CC(=O)N1C(C(=O)NC2CCCCC2)CSC1c1ccccc1 (configuration not stated) in your reply.
Outgoing: > 100 µM

Incoming: Give the measured TGI for CCOP(=O)(OCC)C(F)(F)c1ccc(CC(NC(=O)OC(C)(C)C)C(=O)O)cc1 (configuration not stated)
Outgoing: > 10 µM

Incoming: Read off the recorded TGI for `CN1CC[C@@H](NC(=O)Nc2ccc(C#N)cc2)C[C@@H]1c1nc2ccccc2[nH]1`
Outgoing: > 100 µM

Incoming: Indicate its recorded TGI; the compound in question is CC(C)c1cc2c(cc1S(=O)(=O)O)[C@@]1(C)CCC[C@@](C)(C(=O)O)C1CC2 (some centres not stated)
Outgoing: > 100 µM

Incoming: Specify measured TGI for CCCCN(CCCC)C(=O)C(=O)C(C(=O)c1ccc(OC)cc1)c1ccc(OC)cc1 (configuration not stated) .
Outgoing: > 100 µM

Incoming: Tell me TGI reported for O=C1CCC2(c3ccc(Cl)cc3)Nc3ccncc3N12 (configuration not stated)
Outgoing: > 10 µM

Incoming: In one line, give reported TGI of the entry `CC(=O)Nc1nc(NC(C)=O)c2[nH]c(CO)nc2n1` .
Outgoing: > 100 µM

###

Test system: NCI-H226 lung
test.name: NCI tumour cell line growth inhibition, 48 h
So I've got a bunch of compounds here, and I need their TGI values.

Incoming: Note down TGI recorded for `CC(=O)Oc1cccc2c1C(=O)CCCC2`
Outgoing: > 100 µM

Incoming: Retrieve TGI measured for `Nc1n[nH]c2cccc(C#Cc3cccc(C(=O)Nc4ccc(CN5CCOCC5)c(C(F)(F)F)c4)c3)c12` and print it.
Outgoing: 7.81 µM

Incoming: Find the measured TGI of `O=c1c(-c2ccccc2)c2oc(c1-c1ccccc1)CSCc1cccc(c1)CSC2` and report it.
Outgoing: > 100 µM

Incoming: Report TGI, nothing else, for this compound: `COc1ccc(C)cc1-c1cc(Sc2ccccc2)c(-c2cc(C)ccc2OC)o1`
Outgoing: > 31.6 µM

Incoming: State its TGI: `O=S(=O)(c1ccccc1)N1CCN(S(=O)(=O)c2ccccc2)c2ccccc21`
Outgoing: > 100 µM

Incoming: Query TGI for `C/C(CCn1[nH]c(=O)ccc1=O)=N\NC(=O)C(=O)NN`
Outgoing: > 100 µM

Incoming: Give the reported value of TGI for this record: `COc1ccc2nc(NC(=O)CSc3nnc4n3S(=O)(=O)c3ccccc3N4c3ccccc3)sc2c1`
Outgoing: > 100 µM

Incoming: Please give measured TGI of the following entry: CC1(C(=O)O)CCC2(C)CCC3(C)C(=CC(=O)C4C5(C)CCC(O)C(C)(C)C5CCC43C)C2C1 (stereo not given)
Outgoing: > 100 µM

Incoming: Give the measured TGI for `CCOC(=O)Nc1sc2c(c1C#N)CCCC2`
Outgoing: > 100 µM

Incoming: Report TGI for S=c1sc2c(n1-c1ccccc1)NC=NC2S (stereo not given)
Outgoing: > 100 µM

###

Tested on: LOX IMVI melanoma
test.name: NCI tumour cell line growth inhibition, 48 h
parameter.measured: TGI

Incoming: Indicate its recorded TGI; the molecule in question is `COc1ncc(/C=C2\OC(=O)c3ccccc32)c(OC)n1`
Outgoing: > 100 µM

Incoming: Identify measured TGI corresponding to `O=C(Nc1ccccc1-c1nn(C(=S)Nc2ccccc2)c(=S)n(C(=S)Nc2ccccc2)c1=O)C(F)(F)F`
Outgoing: > 66.1 µM

Incoming: Give the reported value of TGI for this record: `O=S(=O)(c1ccccc1)N1CCN(S(=O)(=O)c2ccccc2)c2ccccc21`
Outgoing: > 100 µM

Incoming: Note TGI for the molecule shown: CCC(=O)NCC1CCCN2CCCCC12 (centres undefined)
Outgoing: > 100 µM

These measurements were taken from PubChem BioAssay (NCI).
